# assay method text: SW1088 Cancer Cell Toxicity qHTS against the NCATS CANVASS Library (AID 1347350); further: nearly all actives have a fitted effect of over 75% in size; further: potency means the concentration at half of the fitted maximal effect
# protocol conditions: SW1088 viability, CellTiter-Glo luminescence, 72 h; series mostly up to 38.3 µM
Results filed as inconclusive are left out. Active and inactive are the calls of the source. The call rests on the fitted dose curve; in most records, active means well fitted cell-killing curve with a large enough effect; inconclusive means small, poorly fitted or top-dose-only effect; inactive means flat fitted curve, though single readings scatter.
reported metric: Potency

Below, each entry is followed by its recorded Potency result.
compound	Potency
O=C1c2c(O)cc(O)cc2OC(c2ccc(O)cc2)C1O (stereo unspecified)	inactive
CCC(C)=C1OC(=O)[C@H](C)[C@H](O)[C@H](Cc2cccnc2)NC(=O)C(NC(=O)c2ncccc2O)C(C)OC1=O (stereo partly specified)	inactive
C/C=C/[C@H]1[C@H]2C(=O)c3c(O)c(C)c(O)c(C)c3[C@]1(C(=O)O)C(=O)C=C2C	inactive
Cc1cc(C)c(O)c(C(=O)CC2CC(=O)NC(=O)C2)c1	inactive
O=Cc1ccc2n1C[C@]1(OC2)O[C@H](CO)[C@@H](O)[C@@H]1O	inactive
C=C[C@](Cl)(CBr)CCC=C(C)C	inactive
O=C1CCC(=O)N(O)CCCCCNC(=O)CCC(=O)N(O)CCCCCNC(=O)CCC(=O)N(O)CCCCCN1	inactive
COC(=O)c1cccc2oc(-c3cccc4oc(-c5c(C)cccc5O)nc34)nc12	0.168 µM (active)

Consider the compound `C/C=C(/C)c1c(Cl)c(O)c(C)c2c1Oc1c(Cl)c(O)c(Cl)c(C)c1C(=O)O2` and give its measured Potency.
18.8 µM (active)

Entry under review: `C[C@@H]1CC[C@]2(C(=O)O)CC[C@]3(C)C(=C2[C@H]1C)CC[C@@H]1[C@@]2(C)CC[C@H](O)C(C)(C)[C@@H]2CC[C@]13C` . Reported Potency?
23.7 µM (active)

If you can, please state the reported Potency value of `COC(=O)[C@@]12Oc3cccc(O)c3C(O)=C1C(=O)C[C@H](C)[C@H]2O` .
inactive

Which Potency reading was recorded for the compound CC1=C(C)C(=O)OC(C(C)C2(O)CCC3C4C5OC5C5(O)CC=CC(=O)C5(C)C4CCC32C)C1 (stereo unspecified) ?
inactive

---

# test system: Cytochrome P450 1A2 (Homo sapiens) (UniProt P05177)
# Sequence (P05177 whole entry, looked up): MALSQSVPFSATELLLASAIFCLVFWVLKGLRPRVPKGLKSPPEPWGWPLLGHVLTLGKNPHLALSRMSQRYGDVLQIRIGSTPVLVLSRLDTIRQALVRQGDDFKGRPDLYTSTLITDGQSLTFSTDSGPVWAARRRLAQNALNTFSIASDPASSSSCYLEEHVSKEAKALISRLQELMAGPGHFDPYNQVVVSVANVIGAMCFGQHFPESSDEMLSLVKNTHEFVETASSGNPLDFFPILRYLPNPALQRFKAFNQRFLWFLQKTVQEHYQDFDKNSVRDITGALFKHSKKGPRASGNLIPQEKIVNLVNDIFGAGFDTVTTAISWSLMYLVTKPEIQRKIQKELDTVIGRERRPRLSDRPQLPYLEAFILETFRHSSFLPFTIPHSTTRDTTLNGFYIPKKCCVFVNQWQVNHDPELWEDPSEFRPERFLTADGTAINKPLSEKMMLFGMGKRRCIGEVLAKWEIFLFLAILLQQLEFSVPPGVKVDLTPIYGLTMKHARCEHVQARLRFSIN
# assay method text: p450-cyp1a2 (AID 410)
# protocol conditions: recombinant CYP1A2, luciferin-ME demethylation, luminescence; series mostly up to 57 µM
Results filed as inconclusive are left out. Activity calls are given as the source filed them. The call rests on the fitted dose curve.
The reply should be one of these categories: y (active), n (inactive)

compound structure	test system	label class
CN(C)c1ncc2nc(-c3ccc(F)cc3)c(=O)n(Cc3cccs3)c2n1	Cytochrome P450 1A2 (Homo sapiens) (UniProt P05177)	y
Cc1noc(C)c1C(=O)N1CCC2(CCCN(C(=O)NC(C)C)C2)CC1	Cytochrome P450 1A2 (Homo sapiens) (UniProt P05177)	n
Cc1cccc(CNc2ccnc(-c3ccoc3)n2)c1	Cytochrome P450 1A2 (Homo sapiens) (UniProt P05177)	y
COCCNc1ccnc(-c2ccccc2CN(C)C)n1	Cytochrome P450 1A2 (Homo sapiens) (UniProt P05177)	y

Field: outcome | Entry: `COCC(=O)N1CCC[C@@]2(CCN(c3ncccn3)C2)C1`
n

Entry `COc1ccc(Oc2ncc3ncc(=O)n(C)c3n2)cc1` : call = ?
y

---

# assay method text: qHTS Assay for Lipid Storage Modulators (AID 1519); further: on the % scale 0 is the no-effect control and ±100 the full control effect
# protocol conditions: Drosophila S3 cells, BODIPY lipid droplet/cell ratio, laser cytometry; at 57.5 µM (top of the series); cells loaded with oleic acid
Results filed as inconclusive are left out.
reported metric: activity change, negative = inhibition (%)
Numbers only here, please. The scale is %.

molecule	activity change, negative = inhibition [%]
O=C(Nc1ccccc1)N1CCC2(CC1)CCN(C(=O)c1ccncc1)CC2	7.6
c1ccc(-c2cccc(N3CC4(CCNCC4)C3)c2)cc1	-6.46
Cc1ccccc1N1CCN(S(=O)(=O)C[C@]23CCC(CC2NC(=O)[C@@H](N)CCS(C)(=O)=O)C3(C)C)CC1 (some centres not stated)	0.353
COCC(=O)N1CCC2(CC1)CN(C(=O)Nc1ccc(OC)cc1)C2	3.11
COc1ncc2nc(-c3ccccc3)c(=O)n(C)c2n1	6.24

Please look up its activity change, negative = inhibition: `O=C(c1ccncc1)N1CCC2(CC1)CCN(c1ccccc1)CC2`
2.16

activity change, negative = inhibition for `CN1CCN(c2nc(-c3cccc(C#N)c3)nc3ccccc23)CC1` ?
8.44

Any idea what its activity change, negative = inhibition is? The molecule is `Cn1c(=O)c(-c2cccc(C#N)c2)nc2cnc(Oc3ccccc3)nc21`
-3.03

Endpoint output: activity change, negative = inhibition of `O=C(O)C1CCN(c2ncnc3ccc(-c4ccccc4C(F)(F)F)cc23)CC1` . Value?
4.82

I have this molecule here, `COc1ccc(-c2nc3cnc(N4CCN(C)CC4)nc3n(Cc3ccc(F)cc3)c2=O)cc1` , and I need its recorded activity change, negative = inhibition.
0.278

Return reported activity change, negative = inhibition; argument: `CCNc1ncc2nc(-c3ccc(OC)cc3)c(=O)n(C[C@H]3CCCO3)c2n1`
-3.19

Looking for the measured activity change, negative = inhibition of `Fc1ccc(Nc2ncncc2-c2ccccc2C(F)(F)F)cc1` , can you help?
3.62

What value of activity change, negative = inhibition has been recorded for this entry: `COCC(=O)N1CCC2(CCCN(C(=O)Nc3cccc(F)c3)C2)CC1`
7.2

So what does the record say about activity change, negative = inhibition for `CCNc1ncc2nc(C)c(=O)n(C3CC3)c2n1` ?
-1.33

---

# assay method text: Primary qHTS for inhibitors of nuclear receptor binding SET domain protein 2 (NSD2) in an isogenic RCH-ACV NSD2 p.E1099K mutant (9B) (AID 1645876); further: nearly all actives have a fitted effect of over 70% in size
# protocol conditions: RCH-ACV (leukaemia line) NSD2 E1099K (9B) viability, CellTiter-Glo, 72 h; series mostly up to 44.9 µM
Records with an inconclusive call do not appear. The source made the active and inactive calls. Calls come from the whole dose curve; as a rule, active = well fitted inhibition curve with a large enough effect; inconclusive = small, poorly fitted or top-dose-only effect; inactive = flat fitted curve, though single readings scatter.
One label from this list, please: y = active, n = inactive

Observe how each entry below is paired with its result.
molecule	label class
CNC(=O)Cn1cc(-c2ccc3c(c2)C(F)CC32NC(=O)N(CC(=O)N(Cc3ccc(F)cc3)[C@@H](C)C(F)(F)F)C2=O)cn1 (stereo partly specified)	y
COc1ccc(N2C(=O)N(c3c(C)cccc3Cl)Cc3cnc(Nc4ccc(C5CCN(C)CC5)cc4OC)nc32)nc1	y
O=C(O)CC(C(=O)O)n1c(O)c(C2=c3cc(Br)ccc3=NC2=O)sc1=S (stereo unspecified)	n
CC(=O)Nc1cc(Oc2ccc3c(nc(Nc4ccc(F)cc4F)n3C)c2C)ccn1	y
CCCc1cc(C(=O)N[C@H](Cc2ccc(-c3cccc(OC(F)(F)F)c3)nc2)C(=O)N[C@@H]2CCNC2)sc1C	y

Hello, I am checking results. What call was entered for `C[C@]12CCC3=C4CCC(=O)C=C4CC[C@H]3[C@@H]1CC[C@@]2(O)CC#N` ?
n

Hello, I am checking results. What call was entered for `Cc1c(Cl)cccc1S(=O)(=O)Nc1nc(CCN2CCOCC2=O)cs1` ?
n

Field: outcome | Entry: `CC(C)n1c(=O)cc(N[C@@H](C)c2ccccc2)[nH]c1=O`
n

Status in this test for `Cc1nnn(C)c1-c1cnc2c3ccc(C(C)(C)O)cc3n([C@H](c3ccccc3)C3CCOCC3)c2c1` ?
y

---

Recorded Z-AUC, one value per entry.
# assay method text: qHTS drug screen for cell cycle checkpoint inhibitors in PARPi-resistant BRCA-mutant ovarian cancer cell lines. (AID 1963452)
# protocol conditions: PEO1/OlaR viability, CellTiter-Glo luminescence, 96 h; measured here: PEO4 Z-AUC; stronger effect = lower value
Give your answer as a number; write no unit.

compound	Z-AUC
CC1(C)SCCN(S(=O)(=O)c2ccc(OCC#CCO)cc2)[C@H]1C(=O)NO	0.33
CC(C)(O)c1coc(S(=O)(=O)NC(=O)Nc2c3c(cc4c2CCC4)CCC3)c1	-1
Nc1ncc(C(=O)NC2CN(C(=O)C3CC3)C2)c2ccc(-c3cccc(F)c3)nc12	0.359
O=C1NC(=O)[C@@H](c2cn3c4c(cccc24)CCC3)[C@@H]1c1c[nH]c2ccccc12	0.765
N#Cc1ccnc(N2C(=O)CC[C@H]2C(=O)N(c2cncc(F)c2)C(C(=O)NC2CC(F)(F)C2)c2ccccc2Cl)c1 (stereo partly specified)	1.33
O=C(Nc1cnn2ccc(N3CCC[C@@H]3c3cc(F)ccc3F)nc12)N1CC[C@H](O)C1	1.78

Now look at this entry.
Which Z-AUC reading was recorded for the compound `Cc1cnc(NC(=O)c2cc(Oc3cnc(C(=O)N(C)C)nc3)c3cc(C)oc3c2)cn1` ?
0.0814

---

# assay method text: qHTS to identify inhibitors of the type 1 interferon - major histocompatibility complex class I in skeletal muscle: primary screen against the NCATS Mechanism Interrogation Plate v5.0 (MIPE) Libary (AID 1347411); further: nearly all actives have a fitted effect of over 65% in size
# protocol conditions: iHSKM cells + IFN-b, HiBiT-tagged MHC-I luminescence, 24 h; series mostly up to 45.8 µM
Records with an inconclusive call do not appear. Active and inactive are the calls of the source. The call rests on the fitted dose curve; in most records, active means well fitted inhibition curve with a large enough effect; inconclusive means small, poorly fitted or top-dose-only effect; inactive means no such curve, though single readings can be large or run the other way.
Write down one outcome, taken from Yes for active, No for inactive

compound	label class
CC1Cc2ccccc2N1C(=O)Cc1nc(N2CCOCC2)cc(=O)[nH]1 (stereo unspecified)	No
COc1ccc(S(=O)(=O)NCc2ccc(C(=O)NCCc3ccc(Cl)cn3)cc2)cc1	No
CC1(N)CCN(c2cccnc2NC(=O)c2nc(-c3ncccc3C(F)(F)F)cnc2N)CC1	No
C[C@]12CCC3=C4CCC(=O)C=C4CC[C@H]3[C@@H]1CC[C@@]2(O)CC#N	No
COc1ccc(-n2cnc3cc(C(=O)N4CCCCC4)ccc32)cc1	No
NS(=O)(=O)c1ccc(S(=O)(=O)Nc2cccc3c(Cl)c[nH]c23)cc1	No

Write down the call the test reported for this compound. Item: Nc1nc(OC(c2ccc(-c3cccc(F)c3)cc2)C(F)(F)F)cc(-c2ccc(C[C@H](N)C(=O)O)cc2)n1 (stereo partly specified)
No

Called result for `C[C@@H]1[C@H](O)[C@@H](C)/C=C/C=C/C=C/C=C/C=C/C=C/C=C/[C@H](O[C@@H]2O[C@H](C)[C@@H](O)[C@H](N)[C@@H]2O)C[C@@H]2O[C@](O)(C[C@@H](O)C[C@@H](O)[C@H](O)CC[C@@H](O)C[C@@H](O)CC(=O)O[C@H]1C)C[C@H](O)[C@H]2C(=O)O`
No

Per the records of this test, what outcome belongs to `CN1CCN(c2ccc3nc(-c4cc(C(C)(C)C)c(OCCCC(=O)NCCCN=[N+]=[N-])c(C(C)(C)C)c4)[nH]c3c2)CC1` ?
Yes

Tell me the recorded outcome of this test for COCCOC(=O)N1CCN(S(=O)(=O)c2cc(F)c(Oc3ccc(Cl)cc3)c(F)c2)C(C(=O)NO)C1 (stereo unspecified) .
Yes

Would you mind telling me which call this test gave `N=C(N)c1ccc2nc(-c3cc(CC(=O)N[C@@H](CC(=O)O)C(=O)O)cc(-c4cc(S(N)(=O)=O)ccc4O)c3O)[nH]c2c1` ?
No

Kindly provide the recorded test outcome for the following compound: `Nc1n[n+]([O-])c2ccccc2[n+]1[O-]`
No

Answer briefly: the call reported for `CC(=O)O/N=C1\C(=O)N(Cc2cc(Cl)ccc2Cl)c2ccc(Cl)cc21` in this assay.
Yes

In this assay, the call recorded for `C[C@H](NC(=O)[C@H]1NCC[C@@H]1O)c1ccc(-c2noc(CCC3CCCC3)n2)cc1` was what?
No

Per the records of this test, what outcome belongs to `C=CC(=O)N1CCC[C@H](n2c(=O)n(-c3ccc(Oc4ccccc4)cc3)c3c(N)ncnc32)C1` ?
No

What is the recorded call for this compound in the test? `CO[C@H]1/C=C\C=C(\C)C(=O)NC2=CC(=O)C(NCCN(C)C)=C(C[C@@H](C)C[C@H](OC)[C@H](O)[C@@H](C)/C=C(/C)[C@@H]1OC(N)=O)C2=O`
Yes
